Values compiled from patent US12404269B2.

experiment: Pharmacokinetic determination in SD rats, tail vein injection; format: in vivo; conditions: rat, plasma; male SD rats, intravenous, 1 mg/kg
observedProperty: clearance (mL/min/kg)
Output spec: scalar in mL/min/kg, unitless text.

stdin: Query clearance for COc1c(OCCCN2CCOCC2)ccc2c1N=C(NC(=O)c1cnc(N)nc1)N1CCN=C21 [Copanlisib, reference compound]
stdout: 36.7

----------
target: UniProt:O00329; assay: PI3Kδ molecular activity test (ADP-GLO); conditions: recombinant protein
Sequence (O00329 whole entry): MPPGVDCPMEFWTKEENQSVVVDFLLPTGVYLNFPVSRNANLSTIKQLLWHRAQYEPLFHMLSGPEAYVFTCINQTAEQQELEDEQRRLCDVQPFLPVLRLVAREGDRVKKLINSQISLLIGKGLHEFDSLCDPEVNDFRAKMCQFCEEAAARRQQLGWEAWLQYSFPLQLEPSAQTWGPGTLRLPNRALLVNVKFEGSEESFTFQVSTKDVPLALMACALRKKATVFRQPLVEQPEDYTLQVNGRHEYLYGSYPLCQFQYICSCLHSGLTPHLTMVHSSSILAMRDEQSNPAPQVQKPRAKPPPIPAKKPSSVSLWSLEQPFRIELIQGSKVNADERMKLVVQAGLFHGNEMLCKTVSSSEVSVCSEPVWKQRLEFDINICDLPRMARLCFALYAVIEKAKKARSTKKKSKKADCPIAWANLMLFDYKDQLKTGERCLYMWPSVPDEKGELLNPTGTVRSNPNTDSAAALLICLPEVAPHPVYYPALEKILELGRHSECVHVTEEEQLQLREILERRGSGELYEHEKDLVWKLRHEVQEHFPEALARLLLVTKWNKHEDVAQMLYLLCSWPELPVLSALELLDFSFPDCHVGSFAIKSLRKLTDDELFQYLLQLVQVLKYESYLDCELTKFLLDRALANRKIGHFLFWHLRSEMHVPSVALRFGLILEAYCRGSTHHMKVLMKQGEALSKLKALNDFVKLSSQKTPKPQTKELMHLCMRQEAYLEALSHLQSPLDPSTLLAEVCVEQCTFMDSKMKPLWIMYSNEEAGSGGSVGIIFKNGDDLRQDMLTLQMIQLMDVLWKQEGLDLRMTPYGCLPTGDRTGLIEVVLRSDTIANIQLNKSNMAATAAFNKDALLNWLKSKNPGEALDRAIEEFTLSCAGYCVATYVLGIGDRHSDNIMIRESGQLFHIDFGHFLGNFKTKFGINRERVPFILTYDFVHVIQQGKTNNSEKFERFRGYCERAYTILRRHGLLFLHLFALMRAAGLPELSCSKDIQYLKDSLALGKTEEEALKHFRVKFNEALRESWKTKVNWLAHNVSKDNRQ
Sequence (P27986 whole entry partner): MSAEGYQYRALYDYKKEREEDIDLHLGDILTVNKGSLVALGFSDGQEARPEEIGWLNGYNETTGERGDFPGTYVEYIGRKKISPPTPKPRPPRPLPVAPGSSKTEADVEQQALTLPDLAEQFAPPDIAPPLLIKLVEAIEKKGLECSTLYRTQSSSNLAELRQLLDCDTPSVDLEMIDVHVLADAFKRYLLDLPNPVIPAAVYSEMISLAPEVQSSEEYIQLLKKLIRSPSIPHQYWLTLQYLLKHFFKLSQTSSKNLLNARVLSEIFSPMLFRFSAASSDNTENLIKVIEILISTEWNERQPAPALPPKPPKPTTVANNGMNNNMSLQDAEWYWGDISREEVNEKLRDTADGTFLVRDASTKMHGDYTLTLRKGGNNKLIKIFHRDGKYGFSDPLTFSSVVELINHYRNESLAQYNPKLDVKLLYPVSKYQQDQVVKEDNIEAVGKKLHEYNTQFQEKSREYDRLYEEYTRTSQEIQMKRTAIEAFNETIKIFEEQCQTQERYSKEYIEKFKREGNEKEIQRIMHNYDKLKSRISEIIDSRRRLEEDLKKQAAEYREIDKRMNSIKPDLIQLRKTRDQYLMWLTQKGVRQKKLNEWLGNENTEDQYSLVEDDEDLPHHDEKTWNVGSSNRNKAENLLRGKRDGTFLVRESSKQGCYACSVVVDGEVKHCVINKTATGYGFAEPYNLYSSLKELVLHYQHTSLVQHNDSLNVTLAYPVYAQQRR
pIC50: −log10 of the molar value.
Reported pIC50 values for the following compounds.

INSERT INTO results (structurestring, observedproperty, result) VALUES
  ('CCn1c(NC(=O)c2cnc(N)nc2)cc2c(OC)c(OCCCN3CCOCC3)ccc2c1=O', 'pIC50', '> 7.70'),
  ('COc1c(OCCCC(N)=O)ccc2c(=O)n(C)c(NC(=O)c3cnc(N)nc3)nc12', 'pIC50', '6.70 to 7.70');

For the next question, use this compound.
stdin: Query pIC50 for `CCn1c(NC(=O)c2ccc(N)nc2)nc2c(OC)c(OC[C@@H](O)CN3CCOCC3)ccc2c1=O`
stdout: 6.00 to 6.70
